Entries and their measured PBM binding z-score follow.
Tested on: RARb homodimer (NR concentration 270 nM)
Assay: PBM binding z-score (relative to random genomic background probes); higher = stronger binding; sequences stand for … in GC…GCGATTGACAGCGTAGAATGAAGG
PARAMETER: PBM binding z-score

sequence_entry=CCTAGCAGGCCAATCTGGGTCACTCATGGCTTGA parameter="PBM binding z-score" endpoint_result=2.19
sequence_entry=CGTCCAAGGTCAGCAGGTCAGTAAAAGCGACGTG parameter="PBM binding z-score" endpoint_result=4.97
sequence_entry=TCTCGGAGGACACGAGGGTCAGAGCTTTCCAGAG parameter="PBM binding z-score" endpoint_result=2.81
sequence_entry=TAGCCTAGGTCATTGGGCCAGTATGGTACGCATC parameter="PBM binding z-score" endpoint_result=2.8
sequence_entry=ACTATTAGTTGAGACGAGGGCAACCCATAGGTTG parameter="PBM binding z-score" endpoint_result=1.45
sequence_entry=ACTAGCAGGCCAAGTTTTGGTCACTCAAACAAAG parameter="PBM binding z-score" endpoint_result=0.74
